- System: SW620
- assay-overview: Antiproliferative activity in human tumor cell lines, PROTOCOL 1 and PROTOCOL 2
- Format: cell-based
- measurement-conditions: SW-620, colon tumor cell line SW620, 48 hours, read-out: IC50
- Procedure: The antiproliferative activity of the compounds of Formula I in an Adult Bovine Aortic Endothelial (ABAE) cell line and in Human Tumor cells lines is evaluated in three similar assays that measure growth inhibition. […] The antiproliferative activity of the compounds of Formula I of the present invention is evaluated in a panel comprised of human tumor cell lines. […] IC50 of Growth inhibition is calculated from the sets of P values using the RS-1 data package (BBN Software). […]
Counter-ions that a name gives are not always drawn.
I'd appreciate it if you could supply IC50 values for the items below.
Answers are plain numbers, in µg/mL.

compound	study-system	IC50 (µg/mL)
CN(C)[C@@H]1C(O)=C(C(N)=O)C(=O)[C@@]2(O)C(O)=C3C(=O)c4c(O)ccc(I)c4CC3CC12 (stereo partly shown)	SW620	1.2
CN(C)[C@@H]1C(O)=C(C(N)=O)C(=O)[C@@]2(O)C(O)=C3C(=O)c4c(O)c(NC(=O)CN5CCCCC5)cc(I)c4CC3CC12 (stereo partly shown) [Example 6, dihydrochloride]	SW620	0.4
CN(C)[C@@H]1C(O)=C(C(N)=O)C(=O)[C@@]2(O)C(O)=C3C(=O)c4c(O)c(NC(=O)CNC5CCCC5)cc(I)c4CC3CC12 (stereo partly shown) [Example 7, dihydrochloride]	SW620	3

For SW620, provide IC50 of CN(C)[C@@H]1C(O)=C(C(N)=O)C(=O)[C@@]2(O)C(O)=C3C(=O)c4c(O)ccc(Br)c4CC3CC12 (stereo partly shown) please. 1.4

====

- Test system: Human Tumor cell lines
- assay-overview: Antiproliferative activity in panel of human tumor cell lines (average / panel as a whole), PROTOCOL 1 and PROTOCOL 2
- Type: cell-based
- measurement-conditions: Homo sapiens; average over the tumor cell lines tested
- Description: The antiproliferative activity of the compounds of Formula I in an Adult Bovine Aortic Endothelial (ABAE) cell line and in Human Tumor cells lines is evaluated in three similar assays that measure growth inhibition. […] The antiproliferative activity of the compounds of Formula I of the present invention is evaluated in a panel comprised of human tumor cell lines. […] IC50 of Growth inhibition is calculated from the sets of P values using the RS-1 data package (BBN Software). […]
Structures can show the parent of a compound that is named as a salt.
test-readout: IC50 (µg/mL)
One number for each entry, in µg/mL.

Illustrative cases are given below, each with its answer.
molecule	test-readout	observed-result
CN(C)[C@@H]1C(O)=C(C(N)=O)C(=O)[C@@]2(O)C(O)=C3C(=O)c4c(O)ccc(I)c4CC3CC12 (some centres unmarked)	IC50	1.7
CN(C)[C@@H]1C(O)=C(C(N)=O)C(=O)[C@@]2(O)C(O)=C3C(=O)c4c(O)ccc(Br)c4CC3CC12 (some centres unmarked)	IC50	1.3
CN(C)[C@@H]1C(O)=C(C(N)=O)C(=O)[C@@]2(O)C(O)=C3C(=O)c4c(O)c(NC(=O)CNC5CCCC5)cc(I)c4CC3CC12 (some centres unmarked) [Example 7, dihydrochloride]	IC50	2
CN(C)[C@@H]1C(O)=C(C(N)=O)C(=O)[C@@]2(O)C(O)=C3C(=O)c4c(O)c(NC(=O)CN5CCCCC5)cc(I)c4CC3CC12 (some centres unmarked) [Example 6, dihydrochloride]	IC50	1

Let's switch to this molecule now.
# query: IC50 of entry CN(C)[C@@H]1C(O)=C(C(N)=O)C(=O)[C@@]2(O)C(O)=C3C(=O)c4c(O)c(NC(=O)CN5CCCC5)cc(I)c4CC3CC12 (some centres unmarked) [Example 5, dihydrochloride] 3.8

====

- Test system: MIP
- assay-overview: Antiproliferative activity in human tumor cell lines, PROTOCOL 1 and PROTOCOL 2
- Type: cell-based
- measurement-conditions: colon tumor cell line MIP, 48 hours
Counter-ions that a name gives are not always drawn.
// boundary case: IC50 equal to 4 µg/mL maps to no; strictly smaller maps to yes

Problem: For the compound CN(C)c1ccc(O)c2c1C[C@H]1C[C@H]3[C@H](N(C)C)C(O)=C(C(N)=O)C(=O)[C@@]3(O)C(O)=C1C2=O [Minocycline, reference compound] , is IC50 under 4 µg/mL? no

Input CN(C)[C@@H]1C(O)=C(C(N)=O)C(=O)[C@@]2(O)C(O)=C3C(=O)c4c(O)c(NC(=O)CN5CCCCC5)cc(I)c4CC3CC12 (some centres unmarked) [Example 6, dihydrochloride] ; condition: IC50 strictly below 4 µg/mL. Does it hold? yes

For CN(C)[C@@H]1C(O)=C(C(N)=O)C(=O)[C@@]2(O)C(O)=C3C(=O)c4c(O)ccc(Br)c4CC3CC12 (some centres unmarked) [Example 8] , is the recorded IC50 below the cut-off of 4 µg/mL? yes

Hi there! Is IC50 for CN(C)[C@@H]1C(O)=C(C(N)=O)C(=O)[C@@]2(O)C(O)=C3C(=O)c4c(O)ccc(I)c4CC3CC12 (some centres unmarked) [Example 10] below 4 µg/mL, do you know? yes
